Attribution: paper PMC8491162

target-under-test: JAK2 (Homo sapiens, UniProt O60674)
Construct: purchased BPS Bioscience
Sequence (O60674 whole entry): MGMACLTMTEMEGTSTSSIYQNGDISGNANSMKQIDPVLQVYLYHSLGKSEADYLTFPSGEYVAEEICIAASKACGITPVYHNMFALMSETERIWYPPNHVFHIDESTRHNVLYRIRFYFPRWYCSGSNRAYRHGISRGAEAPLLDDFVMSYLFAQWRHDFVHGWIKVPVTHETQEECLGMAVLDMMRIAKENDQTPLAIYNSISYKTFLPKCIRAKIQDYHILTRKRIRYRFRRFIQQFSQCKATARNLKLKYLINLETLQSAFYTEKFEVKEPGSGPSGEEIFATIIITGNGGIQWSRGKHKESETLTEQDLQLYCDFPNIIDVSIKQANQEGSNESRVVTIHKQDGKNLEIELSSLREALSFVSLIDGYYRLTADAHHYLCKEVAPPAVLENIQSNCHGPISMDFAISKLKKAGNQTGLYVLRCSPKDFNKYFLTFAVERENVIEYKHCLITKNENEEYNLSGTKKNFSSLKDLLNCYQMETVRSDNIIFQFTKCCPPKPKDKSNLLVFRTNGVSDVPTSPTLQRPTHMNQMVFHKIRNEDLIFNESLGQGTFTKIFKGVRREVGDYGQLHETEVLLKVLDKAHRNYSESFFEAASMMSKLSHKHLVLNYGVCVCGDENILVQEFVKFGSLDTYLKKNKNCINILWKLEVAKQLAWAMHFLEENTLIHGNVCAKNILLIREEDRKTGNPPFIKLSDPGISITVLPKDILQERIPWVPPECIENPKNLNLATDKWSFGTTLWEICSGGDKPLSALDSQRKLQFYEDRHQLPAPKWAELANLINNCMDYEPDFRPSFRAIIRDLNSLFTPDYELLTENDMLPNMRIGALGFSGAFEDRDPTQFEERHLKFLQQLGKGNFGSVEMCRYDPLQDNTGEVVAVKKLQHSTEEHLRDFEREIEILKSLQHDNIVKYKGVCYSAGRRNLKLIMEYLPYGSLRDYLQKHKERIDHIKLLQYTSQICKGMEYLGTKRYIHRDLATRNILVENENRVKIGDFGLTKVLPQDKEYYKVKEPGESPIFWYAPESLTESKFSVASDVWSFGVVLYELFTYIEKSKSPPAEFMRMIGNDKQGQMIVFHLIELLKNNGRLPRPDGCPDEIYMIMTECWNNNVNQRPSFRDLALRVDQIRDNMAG
test-summary: JAK2 activity assay (JAK2 assay kit, BPS Bioscience; Kinase Glo Max luminescence)
Format: biochemical
reported-conditions: 95% confidence limits in brackets; triplicates; read-out: IC50 in the enzymatic assay for JAK2 inhibition
metric: IC50

molecule="Cc1n[nH]c(C)c1C(=O)CC1(O)C(=O)N(Cc2ccccc2)c2ccccc21 (stereo not shown) [Compound 5]" recorded_measurement="> 10 µM"
molecule="NS(=O)(=O)c1ccc(NC(=O)Cn2cnc3scc(-c4ccco4)c3c2=O)cc1 [Compound 7]" recorded_measurement="0.637 µM"
molecule="COc1cccc(C2C(C#N)=C(N)Oc3[nH]nc(C)c32)c1 (stereo not shown) [Compound 3]" recorded_measurement="> 10 µM"
molecule="O=C(O)CSc1nnc2n1CCCN2 [Compound 6]" recorded_measurement="> 10 µM"
molecule="COC(=O)C1=C(C)NC(C)=C(C(=O)OCCN2CCN(C(=O)c3ccco3)CC2)C1c1cccc([N+](=O)[O-])c1 (stereo not shown) [Compound 8]" recorded_measurement="> 10 µM"
molecule="O=C1C2C3C=CC(CO)(O3)C2C(=O)N1c1cccc([N+](=O)[O-])c1 (stereo not shown) [Compound 4]" recorded_measurement="0.807 µM"
molecule="CC(=O)c1oc2ccccc2c1N [Compound 1]" recorded_measurement="> 10 µM"
